Target: T1, CTNI quality control recombinant protein (PK2-CTNI-1, 170120, produced by the applicant) (human, UniProt P19429 2-210, limits assumed)
T1 construct: also called cardiac troponin I
T1 sequence (P19429 2-210 limits assumed): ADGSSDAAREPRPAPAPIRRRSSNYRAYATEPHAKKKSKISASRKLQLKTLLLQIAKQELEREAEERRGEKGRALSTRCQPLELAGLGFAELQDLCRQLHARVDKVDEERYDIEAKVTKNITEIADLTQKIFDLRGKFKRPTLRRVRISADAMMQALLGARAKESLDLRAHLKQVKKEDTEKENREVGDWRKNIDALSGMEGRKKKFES
Test: AMC sensor kinetics, antibody captured, cTnI analyte
// reported kon per item
Expressed in M⁻¹ s⁻¹, but write only the number.

// worked examples, kon included
- binder: "Mutation 1-50 (antibody, V domains shown, built as for Mutation 1) VH: EVQLQQSGAELVKPGASVKLSCTASGFNLKDYFMHWMKQRTEQGLDWIGRIDPEDAETKYAPEFQGKATITADTSSNTAYLQLSTLTSEDTAVYYCARYYSSYIPFVYWGQGTLVTASA VL: DVVMTQTPLSLSVSLGDQASISCRSSQSILYSNRHTYLHWYLQKPGQSPKLLIFQISNRFSGVPDRFSGSGSGTDFTLKINRVEAEDLGVYFCSQSTHIPFTFGSGTKLEIKR"
  measured.endpoint: "kon"
  value.reported: 142000
- binder: "Mutation 1-37 (antibody, V domains shown, built as for Mutation 1) VH: EVQLQQSGAELVKPGASVKLSCTASGFNIKDYFMHWMKQRTEQGLDWIGRIDPEDGETKYAPEFQGKATITADTSSNTAYLQLSTLTSEDTAVYYCARYYSSYVPFVYWGQGTLVTASA VL: DVVMTQTPLSLSVSLGDQASISCRSSQSILYSNRHTYLHWYLQKPGQSPKLLIFQVSNRFSGVPDRFSGSGSGTDFTLKINRVEAEDLGVYFCSQSTHLPYTFGSGTKLEIKR"
  measured.endpoint: "kon"
  value.reported: 400000

Consider the record given below.
Exercise: In one line, give reported kon of the entry Mutation 1-17 (antibody, V domains shown, built as for Mutation 1) VH: EVQLQQSGAELVKPGASVKLSCTASGFNLKDYYMHWMKQRTEQGLDWIGRIDPEDAETRYAPEFQGKATITADTSSNTAYLQLSTLTSEDTAVYYCARYYSSYLPFVYWGQGTLVTASA VL: DVVMTQTPLSLSVSLGDQASISCRSSQSIIYSNRHTYLHWYLQKPGQSPKLLIFQLSNRFSGVPDRFSGSGSGTDFTLKINRVEAEDLGVYFCSQSTHIPYTFGSGTKLEIKR .
Key: 782000

Data origin, for the record: patent US20210340231A1
